system: Klebsiella pneumoniae; test: Antibacterial activity against extended-spectrum beta-lactamase producin Klebsiella pneumoniae 12-4 after 18 to 24 hrs by standard twofold serial dilution method; assay type: functional
Hi there, I'd appreciate the recorded MIC for every entry that follows.
Your answer should be a number followed by the unit of measure.

Form: Entry = CO/N=C1/CN(c2nc3c(cc2F)c(=O)c(C(=O)O)cn3[C@@H]2C[C@@H]2F)[C@H]1CN | System = Klebsiella pneumoniae | MIC = ____
8 µg/mL

Then what about the molecule CCO/N=C1/CN(c2nc3c(cc2F)c(=O)c(C(=O)O)cn3[C@@H]2C[C@@H]2F)[C@H]1CN ?
8 µg/mL

Then what about the molecule NC[C@H]1/C(=N\OCc2ccccc2)CN1c1nc2c(cc1F)c(=O)c(C(=O)O)cn2[C@@H]1C[C@@H]1F ?
16 µg/mL

Then what about the molecule CCO/N=C1/CN(c2cc3c(cc2F)c(=O)c(C(=O)O)cn3[C@@H]2C[C@@H]2F)CC1CN (some centres undefined) ?
8 µg/mL
